- assay_notes: Compound stability test in mouse blood
- Format: in vitro ADME
- condition_info: mouse blood, 37° C., 1 μM, 10 min
measure: Remaining Percentages (%)

- CC(C)[N+](C)(CCOC(=O)C1c2ccccc2Oc2ccccc21)C(C)C [Propantheline, propantheline, reference compound]: 88.8
- CCC(C)n1ncn(-c2ccc(N3CCN(c4ccc(OCC5COC(Cn6c[n+](COC(C)=O)cn6)(c6ccc(Cl)cc6Cl)O5)cc4)CC3)cc2)c1=O.[Cl-] (stereo not drawn): 88.1
- CCC(C)n1ncn(-c2ccc(N3CCN(c4ccc(OCC5COC(Cn6c[n+](COC(=O)C(C)(C)C)cn6)(c6ccc(Cl)cc6Cl)O5)cc4)CC3)cc2)c1=O.[Cl-] (stereo not drawn): 23.9
- CCCOC(=O)OC[n+]1cnn(CC2(c3ccc(Cl)cc3Cl)OCC(COc3ccc(N4CCN(c5ccc(-n6cnn(C(C)CC)c6=O)cc5)CC4)cc3)O2)c1.[Cl-] (stereo not drawn): 37.3
- CCOC(=O)OC[n+]1cnn(CC2(c3ccc(Cl)cc3Cl)OCC(COc3ccc(N4CCN(c5ccc(-n6cnn(C(C)CC)c6=O)cc5)CC4)cc3)O2)c1.[Cl-] (stereo not drawn): 51.5
- CCC(C)n1ncn(-c2ccc(N3CCN(c4ccc(OCC5COC(Cn6c[n+](CC)cn6)(c6ccc(Cl)cc6Cl)O5)cc4)CC3)cc2)c1=O.[Cl-] (stereo not drawn): 40.1
- CCC(C)n1ncn(-c2ccc(N3CCN(c4ccc(OCC5COC(Cn6c[n+](COC(=O)C(C)C)cn6)(c6ccc(Cl)cc6Cl)O5)cc4)CC3)cc2)c1=O.[Cl-] (stereo not drawn): 31.5
- CCC(C)n1ncn(-c2ccc(N3CCN(c4ccc(OCC5COC(Cn6c[n+](C)cn6)(c6ccc(Cl)cc6Cl)O5)cc4)CC3)cc2)c1=O.[Cl-] (stereo not drawn): 2.01
- CCC(C)n1ncn(-c2ccc(N3CCN(c4ccc(OCC5COC(Cn6c[n+](COC(=O)OC(C)C)cn6)(c6ccc(Cl)cc6Cl)O5)cc4)CC3)cc2)c1=O.[Cl-] (stereo not drawn): 71.2
